Just for reference, patent US12410160B2 is where these values come from.

# TESTED_TARGET: human KHK-C (Homo sapiens (Human), UniProt P50053)
# Sequence (P50053 whole entry): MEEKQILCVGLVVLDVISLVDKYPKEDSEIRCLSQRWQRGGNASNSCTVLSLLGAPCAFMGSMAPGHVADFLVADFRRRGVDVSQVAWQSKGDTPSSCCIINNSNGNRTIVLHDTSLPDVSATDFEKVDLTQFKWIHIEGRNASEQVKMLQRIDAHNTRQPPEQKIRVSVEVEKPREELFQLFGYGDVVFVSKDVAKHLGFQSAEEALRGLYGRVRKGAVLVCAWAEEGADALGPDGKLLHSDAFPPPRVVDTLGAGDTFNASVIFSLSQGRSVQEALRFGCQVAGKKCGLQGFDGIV
# ASSAY_NOTES: KHK Biochemical Assay (IC50), ADP-Glo, KHK-C
# EXPERIMENTAL_CONTEXT: average of at least two separate assays
PROPERTY: IC50 (nM)

>>> reported_value("C[C@H]1CCN1c1nc2c(c(-c3ccc4c(c3)[C@]3(C[C@H]3c3nc[nH]n3)C(=O)N4)n1)CCC2")
138
>>> reported_value("C[C@H]1[C@H](O)CN1c1nc(-c2cc(F)c3c(c2)CCC3NS(C)(=O)=O)c2c(n1)C(F)(F)CC2 (stereo partly shown)")
1.8
>>> reported_value("C[C@H](NS(C)(=O)=O)c1ccc(-c2nc(N3C[C@@H](O)[C@@H]3C)nc3c2CCC3(F)F)cc1")
17.2
>>> reported_value("C[C@H]1[C@H](O)CN1c1nc(-c2ccc([C@H](N)CC#N)cc2)c2c(n1)C(F)(F)CC2 (single isomer, unassigned)")
3.1
>>> reported_value("CCN1C(=O)N[C@]2(CCc3cc(-c4nc(N5C[C@@H](O)[C@@H]5C)nc5c4CCC5(F)F)ccc32)C1=O")
0.2
>>> reported_value("C[C@H]1CCN1c1nc2c(c(-c3cc4c(N)nccc4s3)n1)CCC2")
3.4
>>> reported_value("C[C@H]1CCN1c1nc(-c2ccc([C@@H](N)C(F)F)cc2)c2c(n1)C(F)(F)CC2")
2.4
>>> reported_value("C[C@H]1[C@H](O)CN1c1nc(-c2ccc3c(c2)CC[C@]32CCC(=O)N2)c2c(n1)C(F)(F)CC2 (single isomer, unassigned)")
0.3
>>> reported_value("C[C@H]1CCN1c1nc2c(c(-c3ccc4sc(N)nc4c3)n1)CCC2")
49.8
>>> reported_value("NC1(c2ccc(-c3nc(N4CC[C@@H]4C(F)F)nc4c3CCC4(F)F)cc2)COC1 (single isomer, unassigned)")
1.2
>>> reported_value("C[C@H]1[C@H](O)CN1c1nc(-c2ccc3c(c2)S(=O)(=O)CCNC3)c2c(n1)C(F)(F)CC2")
3.5
>>> reported_value("C[C@H]1[C@H](O)CN1c1nc(-c2cc(F)cc(S(C)(=N)=O)c2)c2c(n1)C(F)(F)CC2 (stereo partly shown)")
25.4
>>> reported_value("C[C@H]1CCCN1c1nc(-c2ccc(C3(N)COC3)cc2)c2c(n1)C(F)(F)CC2")
10.9
>>> reported_value("C[C@H]1[C@H](F)CN1c1nc(-c2ccc(C3(N)CS(=O)(=O)C3)cc2)c2c(n1)C(F)(F)CC2")
1
>>> reported_value("C[C@H]1[C@H](O)CN1c1nc(-c2ccc3c(c2)OCCC3NS(C)(=O)=O)c2c(n1)C(F)(F)CC2 (stereo partly shown)")
2.6
>>> reported_value("C[C@H]1[C@H](O)CN1c1nc(-c2ccc3c(c2)COC[C@@H]3NS(C)(=O)=O)c2c(n1)C(F)(F)CC2")
1.6
>>> reported_value("COc1ccc(-c2nc(N3CC(F)(F)[C@@H]3C)nc3c2CCC3(F)F)cc1[S@@](C)(=N)=O")
1.7
>>> reported_value("C[C@H]1CCN1c1nc2c(c(-c3ccc4c(c3)[C@]3(C[C@H]3C(N)=O)C(=O)N4)n1)CCC2 (mixture of isomers)")
29.2
>>> reported_value("COc1cc(-c2nc(N3C[C@@H](O)[C@@H]3C)nc3c2CCC3(F)F)cc(S(C)(=N)=O)c1 (stereo partly shown)")
21.7
>>> reported_value("NC1(c2ccc(-c3nc(N4CC[C@@H]4C(F)(F)F)nc4c3CCC4(F)F)cc2)CCS(=O)(=O)CC1")
2
>>> reported_value("C[C@H]1CCN1c1nc2c(c(-c3ccncn3)n1)CCC2")
219
>>> reported_value("CC(=O)NCc1cc(-c2nc(N3C[C@@H](O)[C@@H]3C)nc3c2CCC3(F)F)cc2c1OCC2")
11.8
>>> reported_value("C[C@H]1CCN1c1nc2c(c(-c3cccc([C@H]4C[C@@H]4C#N)c3)n1)CCC2 (stereo in doubt)")
489
>>> reported_value("C[C@H]1[C@H](O)CN1c1nc(-c2ccc3c(c2)OC[C@@]32COCC(=O)N2)c2c(n1)C(F)(F)CC2 (single isomer, unassigned)")
0.2
>>> reported_value("C[C@H]1[C@H](O)CN1c1nc(-c2ccc3c(c2)COC[C@@]32CCC(=O)N2)c2c(n1)C(F)(F)CC2 (single isomer, unassigned)")
29.2
>>> reported_value("CS(=O)(=O)CC(N)c1ccc(-c2nc(N3CC[C@@H]3CF)nc3c2CCC3(F)F)cc1 (stereo partly shown)")
4.8
>>> reported_value("C[C@H]1CCN1c1nc2c(c(-c3ccc(C(N)=O)cn3)n1)CCC2")
79.2
